Assay: NCI Yeast Anticancer Drug Screen. Data for the sgs1 mgt1 strain (AID 161);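 also: 0% = growth of cultures given vehicle only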
Settings: S. cerevisiae sgs1 mgt1 strain, at 50.0 µM (retest, dose inferred, filed as 5.0), hits give high values
About 79,000 compounds went through this panel and 15% of them were active in at least one assay; those are over-represented in the sample as a whole.
property measured: growth inhibition (%)

> print(dat)
                                   compound  property.measured  reading
1  O=C1c2ccccc2S(=O)(=O)CC1Br (configuration not stated)  growth inhibition       98
2  CC1=CCC[C@@H]2C1(C)CCC(C)[C@@]2(C)CC1=CC(=O)C=CC1=O (some centres not stated)  growth inhibition       95
3  O=C(Nc1nc2c(ncn2C2CC(OC(=O)c3ccccc3)C(COC(=O)c3ccccc3)O2)c(=O)[nH]1)c1ccccc1 (configuration not stated)  growth inhibition       33
4  CC(=C/c1ccccc1)/C=C1/NC(=S)N(/C=C2\C(=O)Oc3ccccc3C2=O)C1=O  growth inhibition       28
5  O=C(CCCN1CCC2(CC1)CC(c1ccccc1)OC2=O)c1ccc(F)cc1 (configuration not stated)  growth inhibition       87
6               O=[N+]([O-])c1ccc(/C=N/O)s1  growth inhibition       99
7                    O=C(O)CCCCCCCCC(=O)CCl  growth inhibition       98

###

Assay: NCI Yeast Anticancer Drug Screen. Data for the sgs1 mgt1 strain (AID 161);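 also: 0% = growth of cultures given vehicle only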
Settings: S. cerevisiae sgs1 mgt1 strain, at 5.0 µM (retest, dose inferred, filed as 0.5), hits give high values
The panel holds about 79,000 compounds, 15% with a hit somewhere; the sample as a whole holds those more often. Calls of active or inactive are those of the source. Cut-off read from the data, not from the text of the source: active = growth inhibition above about 70%; inactive = the rest.
Measured growth inhibition accompanies every entry in the list below.
property measured: growth inhibition

> print(dat)
                                    molecule           reading
 1  CCOC(=O)C(NC(C)=O)[CH](c1ccccc1)[Sn]([c]1ccccc1)([c]1ccccc1)[c]1ccccc1 (stereo not given)   -10% (inactive)
 2        COc1ccc(/C=C/Cc2cc3c(cc2O)OCO3)cc1    12% (inactive)
 3    CCS(=O)(=O)OC(C)CCl (stereo not given)     0% (inactive)
 4         COc1ccc(/C=C/c2ccc3ccccc3n2)cc1OC     3% (inactive)
 5  CCCOC(=O)C(S)C(S)C(=O)OCCC (stereo not given)   -16% (inactive)
 6  O=C(CC(=O)c1ccccc1)CC(O)(c1ccccc1)c1ccccc1    26% (inactive)
 7  COC(OC)C1C2C3C=CC(C4C(=O)OC(=O)C34)C12 (stereo not given)   -15% (inactive)
 8                 O=C1NC(=O)c2cccc3cccc1c23     4% (inactive)
 9  CC1CCC(C(C)C2C(O)CC3C4CCC5CC(O)CCC5(C)C4CCC32C)NC1 (stereo not given)     6% (inactive)
10  CN/N=C(\C)C(CN1CCCCC1)C(C1=C(O)c2ccccc2OC1)c1ccccc1 (stereo not given)     9% (inactive)
11               S=C(Nc1ccccc1)NC1CCCCCCCCC1     5% (inactive)
12  Clc1c(Cl)c(Cl)c(SC2C3CC4C(C3)C42)c(Cl)c1Cl (stereo not given)    27% (inactive)
13             Cc1ccc(Cc2n[nH]c(=O)[nH]2)cc1    30% (inactive)
14                 COC(=O)Cc1cn[nH]c1C(=O)OC   -65% (inactive)
15                    CSS(=O)(=O)c1ccc(C)cc1    21% (inactive)
16      OC(Cn1cncn1)(Cn1cncn1)c1ccc(Cl)cc1Cl    38% (inactive)
17      O=C(OCc1ccccc1CN1CCOCC1)c1ccc(Br)cc1    -2% (inactive)
18  COc1cccc(/C=C(\NC(=O)c2ccccc2)c2nc3ccccc3s2)c1    53% (inactive)
19  C[N+]1(c2ccccc2)C=C(c2ccccc2)SC1=S (stereo not given)    -8% (inactive)
20  CC(=O)OC1C2C3C(C=CC2[C@H]1OC(C)=O)C1C3C=CC2C1C(OC(C)=O)[C@@H]2OC(C)=O (stereo not given in full)  -173% (inactive)
21  CCOc1ccc2c(c1)[n+]([O-])c(S(=O)(=O)c1ccc(C)cc1)c(N)[n+]2[O-]    30% (inactive)
22  COc1ccccc1NC(=O)C1=CNC(C)=C(C(=O)Nc2ccccc2OC)C1/C=C/c1ccccc1 (stereo not given)     1% (inactive)
23  O=[N+]([O-])/C(C(Cl)=C(Cl)Cl)=C(/Nc1ccccc1)SCc1ccccc1    13% (inactive)
24                  Cc1cccc2c(CC(=O)O)cccc12     1% (inactive)
25  Cc1c(-c2ccccc2)ccnc1/C=N/NC(=S)Nc1ccc(N(C)C)cc1    49% (inactive)
26  Cc1ccc(C(O)CCN2CCOCC2)c(C)c1 (stereo not given)    44% (inactive)
27              Cc1ccc2sc3ccc(N)cc3c(=O)c2c1    26% (inactive)
28                Fc1cccc(NC(=S)SCc2ccco2)c1     2% (inactive)
29                             Cc1cccc(C)c1O     0% (inactive)
30  c1ccc([P+](Cc2ccc(C[P+](c3ccccc3)(c3ccccc3)c3ccccc3)s2)(c2ccccc2)c2ccccc2)cc1    37% (inactive)
31  CC(C)CC(N)C(=O)NNc1ccccc1 (stereo not given)    30% (inactive)
32  c1ccc(-c2ccc(-c3cnc(-c4ccc(-c5ccccc5)cc4)o3)cc2)cc1     1% (inactive)
33               Cc1cc(-c2ccc(O)c(C)c2)ccc1O     0% (inactive)
34  O=C(Nc1ccc(-c2cn3ccccc3n2)cc1)c1cc(Br)ccc1O    12% (inactive)
35             Fc1ccc2c(c1)Nc1cc(F)cc(F)c1S2    -4% (inactive)
36  CC(CCCOC(c1ccccc1)(c1ccccc1)c1ccccc1)OC(=O)Nc1ccccc1 (stereo not given)    63% (inactive)
37       CC(=O)Nc1ccc(/C=N\NC(=O)c2ccco2)cc1    -4% (inactive)
38          O=c1ccc([N+](=O)[O-])c[nH]1.[Ag]      99% (active)
39  CCCCN(CCCC)c1ccc2c(c1)C(O)c1ccccc1-2 (stereo not given)     4% (inactive)
40      CCc1cc(/C=C\c2ccnc3ccccc23)ccc1N(C)C    -1% (inactive)

###

Measured growth inhibition accompanies every entry in the list below.
Test: NCI Yeast Anticancer Drug Screen. Data for the mec2-1 strain (AID 157)
Settings: S. cerevisiae mec2-1 strain, at 50.0 µM, hits give high values
This is part of a sample that, as a whole, favours compounds with a hit. Of some 79,000 tested, about 15% had one in any assay.
property measured: growth inhibition (%)

> print(dat)
                                   molecule  property.measured  quantity.unit  reading
1  O=[N+]([O-])c1ccc2c(Nc3ccccc3-c3ccccc3Nc3c4ccccc4nc4cc([N+](=O)[O-])ccc34)c3ccccc3nc2c1  growth inhibition              %       90
2  COc1cccc2c1OC(c1ccc(C#N)cc1)C([N+](=O)[O-])=C2 (stereo not given)  growth inhibition              %     90.8
3  CCCCCCC[CH2][Sn]([CH2]CCCCCCC)([O]c1cccc2cccnc12)[O]c1cccc2cccnc12  growth inhibition              %     87.7
4           COC(=O)/C=C1/OC(c2ccccc2)=CC1=O  growth inhibition              %     91.7
5  CN(C)CCCCCNc1c2ccccc2nc2cccc([N+](=O)[O-])c12  growth inhibition              %     91.2

###

Measured growth inhibition accompanies every entry in the list below.
Experiment: NCI Yeast Anticancer Drug Screen. Data for the mlh1 rad18 strain (AID 175)
Conditions: S. cerevisiae mlh1 rad18 strain growth inhibition; at 5.0 µM (retest, dose inferred, filed as 0.5); hits give high values
Compounds without any hit were thinned out: in the full panel of roughly 79,000, 15% have a hit. Where a SMILES comes first, the peptide text is derived from it. [ ]: non-standard residue; d: D form. The star is where a group is joined. Phe(2-OMe) = COc1ccccc1C[CH](N)C(=O)O; Cbz = O=C(OCc1ccccc1)*; OBn = c1ccc(CO*)cc1

molecule	growth inhibition / %
COc1ccc2nc3cc(Cl)ccc3c(NCCCCCCNc3c4ccc(Cl)cc4nc4ccc(OC)nc34)c2n1	2
COc1cccc2c1C(=O)c1c(O)c3c(c(O)c1C2=O)CC(O)(C(C)=O)CC3OC1CC(N/C(C)=C/C(C)=O)C(O)C(C)O1 (stereo not given)	79
COC(=O)C(Cc1ccccc1OC)NC(=O)C(CC(=O)OCc1ccccc1)NC(=O)OCc1ccccc1 (stereo not given) (Cbz-Asp(OBn)-[Phe(2-OMe)]-OMe; configuration not given here)	0
COC(=O)Nc1nc2ccc(CCC(=O)c3c(C)oc(C)c3-c3ccc(NC(C)=O)cc3)cc2[nH]1	-2
CCCCCCCCCCCCCC[N+]1(CC)CCCCC1	67
CCOC(=O)C(NC(C)=O)[CH](c1ccccc1)[Sn]([c]1ccccc1)([c]1ccccc1)[c]1ccccc1 (stereo not given)	2
Cc1cc(Sc2ccccc2)c2c(C)ccc(C(C)C)cc1-2	-2
COC(=O)c1ccc(Cl)c(Cl)c1	1
COc1cc2cnc(-c3ccccc3)cc2cc1OC	13
CCCN(CCC)c1ccc(Cc2ccc(N(CCC)CCC)cc2N)c(N)c1	-5
